# method: Solubility (PBS, FaSSIF, SGF)
# Assay type: physicochemical
# experimental-parameters: FaSSIF, pH 6.5, fassif; read-out: Solubility FaSSIF, pH 6.5

| compound-smiles | solubility |
| --- | --- |
| C[C@@H]1COCCN1c1cc(N2CCCC[C@@H]2C(F)(F)F)[nH]c(=O)c1 | 890 µM |

###

# method: pKa
# Format: physicochemical
# experimental-parameters: read-out: pKa (weakly basic)

| compound | pKa |
| --- | --- |
| C[C@@H]1COCCN1c1cc(N2CCCC[C@@H]2C(F)(F)F)[nH]c(=O)c1 [SB02024] | 2.2 |

###

# method: Solubility (PBS, FaSSIF, SGF)
# Assay type: physicochemical
# experimental-parameters: SGF, pH 1.8, simulated gastric fluid; read-out: Solubility SGF, pH 1.8
# Procedure: Experiments were conducted at Aragen Life Sciences Ltd. (Hyderabad, India) according to internal standard procedures.

| compound-smiles | solubility |
| --- | --- |
| C[C@@H]1COCCN1c1cc(N2CCCC[C@@H]2C(F)(F)F)[nH]c(=O)c1 | 2150 µM |

###

# method: In vivo mouse PK
# experimental-parameters: in vivo mouse PK; read-out: t½ (converted)
attribute-measured: half-life (h)

| compound-smiles | reported-value |
| --- | --- |
| C[C@@H]1COCCN1c1cc(N2CCCC[C@@H]2C(F)(F)F)[nH]c(=O)c1 | 1.15 |

###

# target-under-test: UniProt:Q8NEB9
# Sequence (Q8NEB9 whole entry): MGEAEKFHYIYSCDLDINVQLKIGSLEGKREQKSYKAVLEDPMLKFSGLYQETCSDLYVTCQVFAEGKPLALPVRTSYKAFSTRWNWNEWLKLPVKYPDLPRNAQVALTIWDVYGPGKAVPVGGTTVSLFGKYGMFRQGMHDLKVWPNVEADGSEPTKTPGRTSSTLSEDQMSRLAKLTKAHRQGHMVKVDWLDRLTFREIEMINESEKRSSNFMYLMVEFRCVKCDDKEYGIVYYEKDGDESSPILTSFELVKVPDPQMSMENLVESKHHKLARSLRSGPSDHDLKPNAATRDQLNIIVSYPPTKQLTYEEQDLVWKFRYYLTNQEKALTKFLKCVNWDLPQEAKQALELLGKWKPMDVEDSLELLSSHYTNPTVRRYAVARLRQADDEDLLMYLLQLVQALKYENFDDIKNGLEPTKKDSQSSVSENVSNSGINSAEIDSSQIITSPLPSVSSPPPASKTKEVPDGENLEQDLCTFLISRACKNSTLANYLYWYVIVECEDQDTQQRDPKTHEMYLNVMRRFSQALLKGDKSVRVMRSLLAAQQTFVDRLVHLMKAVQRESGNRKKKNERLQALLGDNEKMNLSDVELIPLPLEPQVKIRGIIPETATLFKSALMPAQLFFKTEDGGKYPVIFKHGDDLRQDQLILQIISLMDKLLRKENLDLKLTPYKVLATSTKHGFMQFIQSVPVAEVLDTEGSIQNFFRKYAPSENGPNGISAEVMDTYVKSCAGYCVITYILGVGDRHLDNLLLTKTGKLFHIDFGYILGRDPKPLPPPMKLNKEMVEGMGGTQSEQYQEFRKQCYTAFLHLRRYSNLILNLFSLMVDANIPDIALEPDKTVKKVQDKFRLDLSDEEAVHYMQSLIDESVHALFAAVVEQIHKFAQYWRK
# method: cell-based
pIC50: −log10 of the molar value.

| compound | pIC50 |
| --- | --- |
| C[C@@H]1COCCN1c1cc(N2CCCC[C@@H]2C(F)(F)F)[nH]c(=O)c1 [SB02024] | 8.24 |

Recorded values, source paper PMC11306511.
